Hello, the source for this data is patent EP2236511A2, in case you need it.

- Target Entity: human α1D receptor (Homo sapiens)
- Construct: expressed in transfected cells; host or cells: HEK-293
- Sequence (P25100 1-572): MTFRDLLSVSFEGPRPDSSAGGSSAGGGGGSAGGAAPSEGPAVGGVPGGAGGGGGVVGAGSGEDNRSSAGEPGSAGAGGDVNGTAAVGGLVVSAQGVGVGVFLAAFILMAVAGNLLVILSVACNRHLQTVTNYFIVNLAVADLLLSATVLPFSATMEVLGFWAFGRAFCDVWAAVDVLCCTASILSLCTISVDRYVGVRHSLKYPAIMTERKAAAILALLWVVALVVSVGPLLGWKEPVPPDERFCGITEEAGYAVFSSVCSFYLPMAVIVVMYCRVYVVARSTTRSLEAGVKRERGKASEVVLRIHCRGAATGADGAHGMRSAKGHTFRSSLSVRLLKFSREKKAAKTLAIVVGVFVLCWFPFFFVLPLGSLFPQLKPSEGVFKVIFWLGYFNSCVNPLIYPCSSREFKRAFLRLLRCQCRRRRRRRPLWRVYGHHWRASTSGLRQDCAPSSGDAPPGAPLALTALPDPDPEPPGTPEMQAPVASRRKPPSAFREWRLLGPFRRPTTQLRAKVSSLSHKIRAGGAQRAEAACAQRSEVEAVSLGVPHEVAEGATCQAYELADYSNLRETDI
- Assay Details: Radioligand binding to adrenergic receptor α1D ([3H] Prazosin, HEK-293 membranes)
- Measurement Setup: read-out: α-Adrenoceptor, % inhibition α1D
Where a name gives a salt, the structure may show the parent alone.
Readout Name: inhibition at 10 µM (%)
# number only, unit % dropped from output

Which inhibition at 10 µM is reported for this compound? Cc1ccc(S(=O)(=O)n2c3c(c4cc(C)ccc42)CN(C)CCC3)cc1 [1.8.1(3)·HCl]
55

Proceed to Cc1ccc2c(c1)[C@@H]1CN(C)CCC[C@@H]1N2CCc1cccnc1 (relative stereo) [1.6.1(1)·3HCl]
90

Proceed to Cc1ccc2c(c1)c1c(n2CCc2cccnc2)CCCN(C)C1 [1.2.2(3-2)·2HCl]
60

Proceed to Cc1ccc2c(c1)c1c(n2CCc2ccccn2)CCN(C)C1 [1.1.2(2-3)·2HCl]
92

Proceed to Cc1ccc2c(c1)c1c(n2CCc2ccccc2)CCN(C)C1 [1.1.2(1-2)·HCl]
102

Proceed to Cc1ccc2c(c1)[C@@H]1CN(C)CCC[C@@H]1N2CCc1ccc(C)nc1 (relative stereo) [1.6.1(2)·3HCl]
87

* * *

Can you tell me % inhibition for the items I'm about to list?
- Tested on: imidazoline receptor I2
- Assay Details: Radioligand binding to imidazoline receptor I2 ([3H] Idazoxan, rat brain membranes)
- Measurement Setup: 10 µM ligand
Counter-ions that a name gives are not always drawn.
# number only, unit % dropped from output

// lookup % inhibition | system=imidazoline receptor I2 | key= Cc1ccc(S(=O)(=O)n2c3c(c4cc(C)ccc42)CN(C)CCC3)cc1 [1.8.1(3)·HCl]
17

Proceed to Cc1ccc2c(c1)c1c(n2CCc2ccc(C)nc2)CCCN(C)C1 [1.2.2(4-1)]
80

Proceed to Cc1ccc2c(c1)c1c(n2CCc2ccc(C)nc2)CCN(C)C1 [1.1.2(4-2)·2HCl]
98

Proceed to Cc1ccc2c(c1)c1c(n2CCc2ccncc2)CCCN(C)C1 [1.2.2(5-2)]
72

* * *

- Target Entity: human D1 receptor (Homo sapiens, UniProt P21728)
- Sequence (P21728 whole entry): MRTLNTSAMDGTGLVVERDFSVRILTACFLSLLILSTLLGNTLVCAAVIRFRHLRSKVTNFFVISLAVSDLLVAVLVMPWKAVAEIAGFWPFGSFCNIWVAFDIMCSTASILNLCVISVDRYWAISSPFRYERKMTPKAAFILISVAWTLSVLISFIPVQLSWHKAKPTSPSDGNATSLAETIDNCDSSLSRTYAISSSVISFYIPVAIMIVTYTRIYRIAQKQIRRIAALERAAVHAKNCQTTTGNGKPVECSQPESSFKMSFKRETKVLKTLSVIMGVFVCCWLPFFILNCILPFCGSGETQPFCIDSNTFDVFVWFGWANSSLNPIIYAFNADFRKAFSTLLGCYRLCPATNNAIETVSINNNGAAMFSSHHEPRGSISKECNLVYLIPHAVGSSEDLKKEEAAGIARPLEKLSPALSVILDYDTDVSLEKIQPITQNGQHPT
- Assay Details: Radioligand binding to dopamine receptor D1 ([3H] SCH-23390, CHO membranes)
- Measurement Setup: Receptor D1
Readout Name: pKi
Please keep in mind that pKi is minus log10 of the molar concentration; only the number is needed.

Which pKi is reported for this compound? CN1CCc2c(c3ccccc3n2Cc2ccccc2)C1 [1.9(1)·1/2NDSA]
5.74
